Reference source: patent US11351173B2

Hi there, I'd appreciate the recorded activation at 0.1 µM for every entry that follows.
- Subject of test: glucocerebrosidase (Gcase) (Homo sapiens, UniProt P04062)
- Construct: micellar solution containing 10 nM GCase and 100 nM saposin C
- Sequence (P04062 40-536): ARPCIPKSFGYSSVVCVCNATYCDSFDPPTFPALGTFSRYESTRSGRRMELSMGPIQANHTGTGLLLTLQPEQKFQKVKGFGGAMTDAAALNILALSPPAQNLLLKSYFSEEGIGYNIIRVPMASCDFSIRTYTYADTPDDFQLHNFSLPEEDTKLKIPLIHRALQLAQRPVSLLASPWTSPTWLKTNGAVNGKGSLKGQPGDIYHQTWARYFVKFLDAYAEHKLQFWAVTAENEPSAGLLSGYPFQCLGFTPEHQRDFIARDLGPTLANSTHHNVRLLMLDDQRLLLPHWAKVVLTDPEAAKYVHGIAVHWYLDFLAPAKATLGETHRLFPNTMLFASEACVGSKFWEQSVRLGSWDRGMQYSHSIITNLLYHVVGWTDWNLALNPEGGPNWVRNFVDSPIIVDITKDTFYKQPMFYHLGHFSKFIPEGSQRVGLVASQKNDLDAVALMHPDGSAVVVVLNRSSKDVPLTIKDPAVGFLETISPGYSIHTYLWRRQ
- Measurement protocol: Glucocerebrosidase (Gcase) activation assay, 4-methylumbelliferyl-beta-D-glucopyranoside substrate, fluorescence readout
- Type: biochemical
- Test settings: test compound at 0.1 μM; read-out: Percent Gcase Activation, 0.1 μM Test Compound

Answer with the recorded activation at 0.1 µM for the molecule listed here: O=C(NC1CCCc2ccccc21)c1ccn2c(C(F)F)cc(C(F)F)nc12 (stereo not drawn) [III-24] > 20%

Answer with the recorded activation at 0.1 µM for the molecule listed here: Cc1cc(C)n2ccc(C(=O)Nc3cccc4c3CCC4)c2n1 [III-220] > 20%

Answer with the recorded activation at 0.1 µM for the molecule listed here: COC1CC(NC(=O)c2ccn3c(C)cc(C)nc23)c2ccccc21 (stereo not drawn) [III-285] 10 to 20%

Answer with the recorded activation at 0.1 µM for the molecule listed here: O=C(Nc1ccc(-c2cocn2)cc1)c1ccn2c(C(F)F)cc(C(F)F)nc12 [III-23] > 20%

Answer with the recorded activation at 0.1 µM for the molecule listed here: Cc1cc(C)n2ccc(C(=O)Nc3ccc(-c4ccco4)cc3)c2n1 [III-117] > 20%

Answer with the recorded activation at 0.1 µM for the molecule listed here: COCc1cc(C2CC2)nc2c(C(=O)NC3(C)CCOc4cc(F)c(F)cc43)ccn12 (stereo not drawn) [III-266] 10 to 20%

Answer with the recorded activation at 0.1 µM for the molecule listed here: CCCO[C@H]1CC[C@H](CNC(=O)c2ccn3c(C)cc(C)nc23)CC1 [III-240] 10 to 20%

Answer with the recorded activation at 0.1 µM for the molecule listed here: Cc1cc(C)n2ccc(C(=O)NC3CCc4nc(C)sc4C3)c2n1 (stereo not drawn) [III-111] < 10%

Answer with the recorded activation at 0.1 µM for the molecule listed here: Cc1cc(C)n2ccc(C(=O)Nc3ccc(-c4ccco4)nc3)c2n1 [III-10] > 20%
